study_target: UniProtKB P30542
Sequence (whole entry): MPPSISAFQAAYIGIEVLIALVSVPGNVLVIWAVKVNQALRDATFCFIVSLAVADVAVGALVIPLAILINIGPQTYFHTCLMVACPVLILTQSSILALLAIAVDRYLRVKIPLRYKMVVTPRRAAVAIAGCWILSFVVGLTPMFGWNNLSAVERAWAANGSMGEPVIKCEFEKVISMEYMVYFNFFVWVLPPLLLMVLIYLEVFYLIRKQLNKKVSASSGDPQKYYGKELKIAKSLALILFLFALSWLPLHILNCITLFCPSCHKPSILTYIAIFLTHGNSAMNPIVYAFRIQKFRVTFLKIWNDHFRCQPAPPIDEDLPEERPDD
experiment_notes: Displacement of [3H]DPCPX from human adenosine A1 receptor expressed in CHO cell membranes at 1 uM after 60 mins
Where inhibition equals or exceeds 20%, the correct label is 1.0; where it does not, the label is 0.0.

| compound | study_target | qualitative_label |
| --- | --- | --- |
| CCOC(=O)C1=C(C)N/C(=N\C#N)NC1C1CCCC1 (racemic) | UniProtKB P30542 | 0.0 |
| CC1=C(C(=O)OC(C)C)C(C2CCCC2)NC(=O)N1 (stereo unspecified) | UniProtKB P30542 | 0.0 |
| CC1=C(C(=O)OC(C)C)C(c2ccsc2)N/C(=N/C#N)N1 (racemic) | UniProtKB P30542 | 0.0 |
| CCOC(=O)C1=C(C)NC(=O)NC1c1ccco1 (stereo unspecified) | UniProtKB P30542 | 0.0 |
| CCOC(=O)C1=C(C)N/C(=N\C#N)NC1c1ccccc1 (racemic) | UniProtKB P30542 | 0.0 |
| CC1=C(C(=O)OC(C)C)[C@@H](c2ccco2)N/C(=N/C#N)N1 | UniProtKB P30542 | 0.0 |
| CC1=C(C(=O)OC(C)C)C(c2ccccc2)NC(=O)N1 (stereo unspecified) | UniProtKB P30542 | 0.0 |
| CC1=C(C(=O)OC(C)C)[C@H](c2ccco2)N/C(=N/C#N)N1 | UniProtKB P30542 | 0.0 |
| CCOC(=O)C1=C(C)N/C(=N\C#N)NC1c1ccoc1 (racemic) | UniProtKB P30542 | 1.0 |
| CCOC(=O)C1=C(C)NC(=O)NC1c1ccsc1 (stereo unspecified) | UniProtKB P30542 | 1.0 |
| CC1=C(C(=O)OC(C)C)C(c2ccco2)N/C(=N/C#N)N1 (racemic) | UniProtKB P30542 | 1.0 |

###

Examples of compounds with documented inhibition follow.
study_target: Adenosine receptor A2a (Homo sapiens) (UniProt P29274)
Sequence (P29274 whole entry): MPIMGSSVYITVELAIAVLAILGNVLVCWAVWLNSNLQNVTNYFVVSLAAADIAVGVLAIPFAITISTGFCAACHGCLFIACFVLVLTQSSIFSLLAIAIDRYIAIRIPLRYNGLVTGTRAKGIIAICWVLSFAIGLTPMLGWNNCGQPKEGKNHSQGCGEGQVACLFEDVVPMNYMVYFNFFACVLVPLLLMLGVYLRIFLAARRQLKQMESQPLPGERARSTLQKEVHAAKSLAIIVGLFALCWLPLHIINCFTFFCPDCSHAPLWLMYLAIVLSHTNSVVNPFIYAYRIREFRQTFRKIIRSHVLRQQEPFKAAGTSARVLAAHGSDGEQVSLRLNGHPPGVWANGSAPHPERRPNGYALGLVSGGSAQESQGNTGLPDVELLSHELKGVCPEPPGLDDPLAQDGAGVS
experiment_notes: Displacement of [3H]4-(2-[7-amino-2-(2-furyl)[1,2,4]triazolo[2,3-a][1,3,5]triazin-5-ylamino]ethyl)phenol from human adenosine A2A receptor expressed in human Hela cell membranes at 1 uM after 30 mins

| compound | study_target | unit_annotation | inhibition |
| --- | --- | --- | --- |
| CC1=C(C(=O)OC(C)C)[C@@H](c2ccco2)N/C(=N/C#N)N1 | Adenosine receptor A2a (Homo sapiens) (UniProt P29274) | % | 4 |
| CC1=C(C(=O)OC(C)C)C(C2CCCC2)NC(=O)N1 (stereo unspecified) | Adenosine receptor A2a (Homo sapiens) (UniProt P29274) | % | 1 |
| CC1=C(C(=O)OC(C)C)C(c2ccco2)NC(=O)N1 (stereo unspecified) | Adenosine receptor A2a (Homo sapiens) (UniProt P29274) | % | 30 |
| CCOC(=O)C1=C(C)N/C(=N\C#N)NC1c1ccco1 (racemic) | Adenosine receptor A2a (Homo sapiens) (UniProt P29274) | % | 20 |
| CCOC(=O)C1=C(C)N/C(=N\C#N)NC1c1ccoc1 (racemic) | Adenosine receptor A2a (Homo sapiens) (UniProt P29274) | % | 31 |
| CC1=C(C(=O)OC(C)C)C(c2cccs2)N/C(=N/C#N)N1 (racemic) | Adenosine receptor A2a (Homo sapiens) (UniProt P29274) | % | 16 |
